From: ChEMBL document CHEMBL2086250

Assay Info: Half life in C57BL/6J mouse at 20 mg/kg, po administered as single dose
Format: ADME, organism-based
Design: dose 20 mg/kg, route oral
Study Conditions: in vivo
Readout: half-life (min)
Respond with the bare value in min.

[ask] Tell me measured half-life for N#Cc1ccc(NCCNCC(=O)N2CCC[C@H]2C#N)nc1 please.
[reply] 52.8

[ask] Tell me measured half-life for N#C[C@@H]1CCCN1C(=O)CCCNC(=O)c1ccc(C(F)(F)F)cc1 please.
[reply] 59.4

[ask] Tell me measured half-life for N#Cc1ccc(C(=O)NCCCC(=O)N2CCC[C@H]2C#N)cc1 please.
[reply] 479
